Reference for the values: paper PMC2700083

- ASSAY_PROTOCOL: Solubility in buffer by HPLC
- Type: physicochemical
- CONDITION_INFO: in buffer, determined by HPLC; read-out: Buffer Solubility
*1 amine or outer side, *2 acyl side, *3 side chain or, on linkers, in order; H or OH if unused. Where a SMILES comes first, the peptide text is derived from it. Bridges are numbered along the chain shown (N, C = ends). CH2 = C([*:1])[*:2]
QUANTITY: solubility (µM)

MOLECULE	UNITS_TEXT	COMPARATOR	OBSERVED_RESULT
CC(C)C[C@@H]1NC(=O)CNC(=O)[C@H](CCCCN)NC(=O)[C@@H](NC(=O)[C@H](Cc2c[nH]c3ccccc23)NC(=O)[C@@H](N)Cc2ccc(O)cc2)CSCSC[C@@H](C(=O)N[C@@H](CCCCN)C(N)=O)NC1=O [Peptide 5nm, YWCKGLCK-NH2] (H-YWCKGLCK-NH2; linker 3-7 via CH2)	µM	≥	470
CC(=O)NCC(=O)N[C@H](C(=O)N[C@H]1CSSC[C@@H](C(=O)N[C@@H](Cc2c[nH]c3ccccc23)C(N)=O)NC(=O)[C@H]([C@@H](C)O)NC(=O)CNC(=O)[C@H](Cc2ccccc2)NC1=O)[C@@H](C)O [Peptide 2ad, Ac-GTCFGTCW-NH2] (Ac-GTCFGTCW-NH2; disulfide 3-7)	µM	=	30
CC(C)C[C@H](N)C(=O)N[C@H](C(=O)N[C@H]1CSSC[C@@H](C(=O)N[C@@H](CCC(N)=O)C(N)=O)NC(=O)[C@H](Cc2ccc(O)cc2)NC(=O)CNC(=O)[C@H](CCCCN)NC1=O)C(C)C [Peptide 3nd, LVCKGYCQ-NH2] (H-LVCKGYCQ-NH2; disulfide 3-7)	µM	≥	470
CC(=O)N[C@@H](Cc1ccc(O)cc1)C(=O)N[C@@H](CC(N)=O)C(=O)N[C@H]1CSSC[C@@H](C(=O)N[C@@H](CCCCN)C(N)=O)NC(=O)[C@H](CCC(=O)O)NC(=O)CNC(=O)[C@H](CCC(N)=O)NC1=O [Peptide 1ad, Ac-YNCQGECK-NH2] (Ac-YNCQGECK-NH2; disulfide 3-7)	µM	=	123
CC(=O)N[C@@H](Cc1ccc(O)cc1)C(=O)N[C@@H](Cc1c[nH]c2ccccc12)C(=O)N[C@@H](CS)C(=O)N[C@@H](CCCCN)C(=O)NCC(=O)N[C@@H](CC(C)C)C(=O)N[C@@H](CS)C(=O)N[C@@H](CCCCN)C(N)=O [Peptide 5al, Ac-YWCKGLCK-NH2] (Ac-YWCKGLCK-NH2)	µM	=	460
C[C@@H](O)[C@@H]1NC(=O)CNC(=O)[C@H](Cc2ccccc2)NC(=O)[C@@H](NC(=O)[C@@H](NC(=O)CN)[C@@H](C)O)CSSC[C@@H](C(=O)N[C@@H](Cc2c[nH]c3ccccc23)C(N)=O)NC1=O [Peptide 2nd, GTCFGTCW-NH2] (H-GTCFGTCW-NH2; disulfide 3-7)	µM	=	464
CSCC[C@@H]1NC(=O)[C@@H](NC(=O)[C@@H](NC(=O)[C@H](CCCCN)NC(C)=O)C(C)C)CSSC[C@@H](C(=O)N[C@H](C(N)=O)[C@@H](C)O)NC(=O)CNC(=O)CNC1=O [Peptide 4ad, Ac-KVCMGGCT-NH2] (Ac-KVCMGGCT-NH2; disulfide 3-7)	µM	=	459
